assay: CellTiter-Glo toxicity in mock-infected neural stem cells; details: human, mock-infected neural stem cells (NSCs)
OUTCOME_MEASURE: CC50 at 72 h

compound="CSCCOP(=O)(NCCc1c[nH]c2ccccc12)OCC1OC(n2ccc(=O)[nH]c2=O)C(C)(O)C1O (stereo not shown)" outcome_measure="CC50 at 72 h" value_reported="> 50 µM"

The reported numbers originate from paper PMC6521205.
